Reference for the values: PubChem BioAssay AID602251

Target: anti-desmoglein 3 scFv antibody binding to human desmoglein 3 (DSG3)
Assay: inhibitors of anti-DSG3 scFv binding to DSG3, dose response, biochemical, DSG3-coupled beads, scFv-GFP, flow cytometry, Cherry Pick 1 (AID 602251);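 on binding response, lower = inhibition: 100% = DMSO vehicle binding and 0% = soluble DSG3 blocking control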
Settings: at 66.1 µM (top of the series)
Active and inactive are the calls of the source.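 How the source made its calls: active means fitted concentration giving half of the maximal binding block below 66 µM; inactive means the rest.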
assay readout: binding response, lower = inhibition

Worked examples, 10 compounds total:
>  <compound>
S=c1[nH]ncn1/N=C/c1ccccc1

>  <binding response, lower = inhibition>
inactive

$$$$
>  <compound>
CC(C)OC(=O)CSc1nc2c(cc1C#N)CCCCC2

>  <binding response, lower = inhibition>
inactive

$$$$
>  <compound>
Cc1ccc(-c2nc3sc(C#N)c(N)n3c(=O)c2C#N)cc1

>  <binding response, lower = inhibition>
inactive

$$$$
>  <compound>
O=[N+]([O-])c1ccc(NCCNc2ccc([N+](=O)[O-])cc2)cc1

>  <binding response, lower = inhibition>
inactive

$$$$
>  <compound>
Cc1cc(SCC(=O)Nc2ccc3[nH]c(=O)[nH]c3c2)nc2ccccc12

>  <binding response, lower = inhibition>
inactive

$$$$
>  <compound>
CCOC(=O)c1cn(-c2ccc([N+](=O)[O-])cc2)c2cc(Cl)c([N+](=O)[O-])cc2c1=O

>  <binding response, lower = inhibition>
inactive

$$$$
>  <compound>
CN1C(=O)/C(=C/c2cccn2-c2ccc3ccccc3c2)C(=O)NC1=S

>  <binding response, lower = inhibition>
inactive

$$$$
>  <compound>
CCCCN1C=C(C(=O)OC)C(c2ccccc2C(F)(F)F)C(C(=O)OC)=C1

>  <binding response, lower = inhibition>
inactive

$$$$
>  <compound>
O=C(Nc1nc2cc3c(cc2s1)OCCO3)c1ccc(N2C(=O)CCC2=O)cc1

>  <binding response, lower = inhibition>
inactive

$$$$
>  <compound>
O=C(Nc1ccc2oc(=O)ccc2c1)c1ccc(-c2ccccc2[N+](=O)[O-])o1

>  <binding response, lower = inhibition>
inactive

$$$$

List the reported binding response, lower = inhibition of each compound below.
1. CC(C)(C)NS(=O)(=O)c1ccc(NC(=O)c2cc(-c3ccccc3)nc3ccccc23)cc1
2. O=C(COc1cc2oc(=O)c3c(c2cc1Cl)CCC3)Nc1ccccn1
3. Cc1sc(NC(=O)CSc2nnc3scc(-c4ccccc4)n23)c(C#N)c1C
4. CCOc1ccc(N2CSC(=S)N(c3ccc(OCC)cc3)C2)cc1

inactive
inactive
inactive
inactive

List the reported binding response, lower = inhibition of each compound below.
1. COc1ccc2c(c1)c(N=NC(N)=S)c(O)n2CC(=O)c1ccccc1
2. COc1ccc(C(=O)Nc2ccc(Oc3ncnc4sc(-c5ccccc5)cc34)cc2)cc1OC

inactive
inactive

List the reported binding response, lower = inhibition of each compound below.
1. O=C(COC(=O)c1ccc(S(=O)(=O)N2CCc3ccccc3C2)cc1)NC1CCS(=O)(=O)C1 (stereo unspecified)
2. O=C(CSc1ccsc1[N+](=O)[O-])Nc1cc(F)ccc1F
3. O=C(Nc1ccc(N2CCN(C(=O)c3ccccc3)CC2)cc1)c1cc2ccccc2o1
4. O=C(NCCN1C(=O)S/C(=C\c2ccc(Cl)c(Cl)c2)C1=O)c1cnccn1
5. O=C(COC(=O)c1ccc(S(=O)(=O)N2CCCC2)cc1)NCc1ccc(Cl)cc1

1. inactive
2. inactive
3. inactive
4. inactive
5. inactive

---

Molecular target: anti-desmoglein 3 scFv antibody binding to human desmoglein 3 (DSG3)
Test: inhibitors of anti-DSG3 scFv binding to DSG3, dose response, biochemical, DSG3-coupled beads, scFv-GFP, flow cytometry, Cherry Pick 1 (AID 602251);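 on binding response, lower = inhibition: 100% = DMSO vehicle binding and 0% = soluble DSG3 blocking control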
Details: at 66.1 µM (top of the series)
Activity calls are given as the source filed them.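 How the source made its calls: active means fitted concentration giving half of the maximal binding block below 66 µM; inactive means the rest.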
assay readout: binding response, lower = inhibition

Worked examples, 4 compounds total:
>  <compound>
CCOc1ccc2nc(NC(=O)c3ccc(S(=O)(=O)N4CCOCC4)cc3)sc2c1

>  <binding response, lower = inhibition>
inactive

$$$$
>  <compound>
O=C(COC(=O)Cc1ccc(-c2ccccc2)cc1)NCc1ccc(F)cc1

>  <binding response, lower = inhibition>
inactive

$$$$
>  <compound>
O=C(Nc1ccc(Nc2ccncc2)cc1)c1ccc(Nc2ccnc3ccc([N+](=O)[O-])cc23)cc1

>  <binding response, lower = inhibition>
inactive

$$$$
>  <compound>
COc1ccc(CNC(=O)c2ccc(-c3ccccc3)cc2)cc1OC

>  <binding response, lower = inhibition>
inactive

$$$$

Entry Cc1cc(C)cc(N(CC(=O)NC2CCC(C)CC2)S(=O)(=O)c2c(C)noc2C)c1 (stereo not given) : reported binding response, lower = inhibition = ?
inactive

---

Exercise: state measured EC50 for each of the molecules provided.
Target: anti-desmoglein 3 scFv antibody binding to human desmoglein 3 (DSG3)
Assay: inhibitors of anti-DSG3 scFv binding to DSG3, dose response, biochemical, DSG3-coupled beads, scFv-GFP, flow cytometry, Cherry Pick 1 (AID 602251)

>  <molecule>
O=C(O)C1Nc2c(O)cc(Cl)c([N+](=O)[O-])c2C2C=CCC12 (centres undefined)

>  <EC50>
27.7 µM

$$$$
>  <molecule>
CCc1nnc(NC(=O)CSc2nncc(=O)n2N)s1

>  <EC50>
55 µM

$$$$
>  <molecule>
CCOC(=O)Cc1csc(-n2sc3ccccc3c2=O)n1

>  <EC50>
15 µM

$$$$
>  <molecule>
C=CCNC(=O)c1c(N)n(-c2cccc(S(N)(=O)=O)c2)c2nc3ccccc3nc12

>  <EC50>
58.5 µM

$$$$
>  <molecule>
O=C(O)c1cccc2c1NC(C(=O)O)C1CC(Sc3ccccc3[N+](=O)[O-])C(Cl)C21 (centres undefined)

>  <EC50>
29 µM

$$$$

List the reported EC50 of each molecule below.
1. Clc1ccc2nc(CSc3nnc(-c4c[nH]c5ccccc45)o3)cn2c1
2. O=C(CSc1ccc(Cl)cc1)Nc1cccc(-c2nc3ccccc3[nH]2)c1
3. C=CCn1c(SCC(=O)N2CCN(c3ccccc3)CC2)nc2c([nH]c3ccccc32)c1=O

24.8 µM
59.2 µM
50.9 µM

List the reported EC50 of each molecule below.
1. CCN(CC)c1ccc(NC(=O)CCCCC(=O)Nc2ccc(N(CC)CC)cc2)cc1
2. COc1ccccc1NC(=O)Cn1nnc(-c2ccccc2NC(=O)c2cc3ccccc3oc2=O)n1
3. COc1cccc2c1NC(C(=O)O)C1CC=CC21 (centres undefined)

["27.2 µM", "25.8 µM", "32.1 µM"]

---

Target: anti-desmoglein 3 scFv antibody binding to human desmoglein 3 (DSG3)
Experiment: inhibitors of anti-DSG3 scFv binding to DSG3, dose response, biochemical, DSG3-coupled beads, scFv-GFP, flow cytometry, Cherry Pick 1 (AID 602251)
assay readout: EC50

Worked examples, 8 compounds total:
>  <smi>
Cc1ccc(C(C)C)c(OCC(=O)Nc2ccc(N3CCN(S(C)(=O)=O)CC3)cc2)c1

>  <EC50>
20.9 µM

$$$$
>  <smi>
O=c1c2ccccc2sn1-c1nccs1

>  <EC50>
12.7 µM

$$$$
>  <smi>
CCC(=C/c1sc2ccc3ccccc3c2[n+]1C)/C=C1\Sc2ccc3ccccc3c2N1C

>  <EC50>
25.9 µM

$$$$
>  <smi>
CCCCOC(=O)Nc1sc2nc(C)cc(C)c2c1-n1cccc1

>  <EC50>
41.9 µM

$$$$
>  <smi>
CCC(CC)C(=O)Nc1cccc(S(=O)(=O)c2cccc(NC(=O)C(CC)CC)c2)c1

>  <EC50>
55 µM

$$$$
>  <smi>
CC(=O)Nc1cc(=O)c2cccnc2[nH]1

>  <EC50>
25.4 µM

$$$$
>  <smi>
CCOc1ccc2c(ccc(/C=C/c3cc(C)c4cccnc4c3O)[n+]2C)c1

>  <EC50>
1.08 µM

$$$$
>  <smi>
COc1ccc(N=C2S/C(=C\c3ccc(OCC(=O)O)cc3)C(=O)N2CCc2c[nH]c3ccccc23)cc1

>  <EC50>
15.8 µM

$$$$

List the reported EC50 of each compound below.
1. COc1ccc(NC(=O)CSc2nc3c([nH]c4ccccc43)c(=O)n2C)c(OC)c1
2. COCCn1c(=NC(=O)CCS(=O)(=O)c2ccccc2)sc2cc(C(=O)OC)ccc21

1: 22.4 µM; 2: 25.4 µM

---

Molecular target: anti-desmoglein 3 scFv antibody binding to human desmoglein 3 (DSG3)
Experiment: inhibitors of anti-DSG3 scFv binding to DSG3, dose response, biochemical, DSG3-coupled beads, scFv-GFP, flow cytometry, Cherry Pick 1 (AID 602251)
assay readout: pEC50
Numbers only, as −log10 of the molar value.

Worked examples, 4 molecules total:
>  <smi>
NS(=O)(=O)c1ccc(NC(=O)c2cc(-c3cccs3)nc3ccccc23)cc1

>  <study target>
anti-desmoglein 3 scFv antibody binding to human desmoglein 3 (DSG3)

>  <pEC50>
4.76

$$$$
>  <smi>
C=CCn1c(O)c(C2=c3ccccc3=NC2=O)s/c1=N/c1nccs1

>  <study target>
anti-desmoglein 3 scFv antibody binding to human desmoglein 3 (DSG3)

>  <pEC50>
4.40

$$$$
>  <smi>
Nc1ccc2nc(-c3cccc(-c4nc5ccc(N)cc5[nH]4)c3)[nH]c2c1

>  <study target>
anti-desmoglein 3 scFv antibody binding to human desmoglein 3 (DSG3)

>  <pEC50>
4.19

$$$$
>  <smi>
CN1C(=CC=C2C=C(I)C(=O)C(I)=C2)C(C)(C)c2ccccc21

>  <study target>
anti-desmoglein 3 scFv antibody binding to human desmoglein 3 (DSG3)

>  <pEC50>
4.80

$$$$

Entry `O=C(Nc1ccc(N2CCOCC2)cc1)c1ccc2nc(-c3ccco3)c(-c3ccco3)nc2c1` : reported pEC50 = ?
4.59
